ASSAYED_SYSTEM: HCV NS3/4A protease complex, BMS strain (UniProt P27958, species not given/STRAIN_BMS)
Construct: said of H77 and J4L6S; fused on or other part: three-lysine solubilising tail at the end of NS4A (printed for the H77 and J4L6S constructs; probably the same for BMS)
Sequence (P27958 1027-1657, change not shown, one chain of several): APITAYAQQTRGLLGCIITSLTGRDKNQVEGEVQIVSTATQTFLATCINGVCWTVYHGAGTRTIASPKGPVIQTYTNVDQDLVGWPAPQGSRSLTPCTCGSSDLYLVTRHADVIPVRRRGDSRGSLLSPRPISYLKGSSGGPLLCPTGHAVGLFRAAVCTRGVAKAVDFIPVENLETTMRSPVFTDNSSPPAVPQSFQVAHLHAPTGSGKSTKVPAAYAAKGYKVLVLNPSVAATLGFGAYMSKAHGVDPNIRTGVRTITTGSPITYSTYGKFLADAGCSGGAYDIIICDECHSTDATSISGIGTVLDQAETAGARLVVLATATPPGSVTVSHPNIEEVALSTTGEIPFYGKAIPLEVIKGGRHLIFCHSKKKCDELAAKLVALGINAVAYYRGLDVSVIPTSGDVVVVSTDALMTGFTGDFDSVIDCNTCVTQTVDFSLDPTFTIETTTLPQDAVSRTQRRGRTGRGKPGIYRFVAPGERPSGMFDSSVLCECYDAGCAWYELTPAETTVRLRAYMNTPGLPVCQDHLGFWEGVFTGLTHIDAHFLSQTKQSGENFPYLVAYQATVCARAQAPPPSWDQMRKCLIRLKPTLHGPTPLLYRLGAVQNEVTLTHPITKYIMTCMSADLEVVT
PROTOCOL: FRET peptide assay to monitor HCV NS3/4A proteolytic activity (BMS strain)
Type: biochemical, Hepatitis C virus (genotype 1a)
RUN_CONDITIONS: Table 2, NS3/4A BMS strain, numeric values
Source text: HCV […] protease complexes, derived from the BMS strain, H77 strain or J4L6S strain, were generated, as described below. These purified recombinant proteins were generated for use in a homogeneous assay (see below) to provide an indication of how effective compounds of the present disclosure would be in inhibiting HCV NS3 proteolytic activity. Serum from an HCV-infected patient was obtained from Dr. T. Wright, San Francisco Hospital. […]
pIC50: −log10 of the molar value.
Catalogue of pIC50 readings, one per entry.

COMPOUND	ASSAYED_SYSTEM	pIC50
C=C[C@@H]1C[C@]1(NC(=O)[C@@H]1C[C@@](SCCCC)(c2ccc(-c3ccccc3)cc2)CN1C(=O)[C@@H](NC(=O)OC(C)(C)C)C(C)(C)C)C(=O)NS(=O)(=O)C1CC1	HCV NS3/4A protease complex, BMS strain (UniProt P27958, species not given/STRAIN_BMS)	8.52
C=C[C@@H]1C[C@]1(NC(=O)[C@@H]1C[C@](c2ccc(-c3ccccc3)cc2)(S(=O)(=O)CCCC)CN1C(=O)[C@@H](NC(=O)OC(C)(C)C)C(C)(C)C)C(=O)NS(=O)(=O)C1CC1 (single isomer, unassigned)	HCV NS3/4A protease complex, BMS strain (UniProt P27958, species not given/STRAIN_BMS)	9.00
CCCCS[C@@]1(c2ccc(-c3ccccc3)cc2)C[C@@H](C(=O)N[C@]2(C(=O)NS(=O)(=O)C3CC3)C[C@H]2C(F)F)N(C(=O)[C@@H](NC(=O)OC(C)(C)C)C(C)(C)C)C1	HCV NS3/4A protease complex, BMS strain (UniProt P27958, species not given/STRAIN_BMS)	8.70

* * *

ASSAYED_SYSTEM: human liver cathepsin B (Homo sapiens, UniProt P07858)
Construct: purchased Sigma, EMDbiosciences; host or cells: human liver
PROTOCOL: Specificity assay, cathepsin B
Type: biochemical
pIC50: −log10 of the molar value.

SMILES_DATA	pIC50
C=C[C@@H]1C[C@]1(NC(=O)[C@@H]1C[C@@](SCCCC)(c2ccc(-c3ccccc3)cc2)CN1C(=O)[C@@H](NC(=O)OC(C)(C)C)C(C)(C)C)C(=O)NS(=O)(=O)C1CC1	5.12

* * *

ASSAYED_SYSTEM: HCV NS3/4A protease complex, J4L6S strain (Hepatitis C virus genotype 1b, UniProt O92972, C1454S/C1711G)
Construct: DNA encoding the recombinant HCV NS3/4A protease complex (amino acids 1027 to 1711) for these strains; His tag (inferred from pET21b vector and Ni-NTA purification)
Sequence (O92972 1027-1711 C1454S/C1711G, one chain of several): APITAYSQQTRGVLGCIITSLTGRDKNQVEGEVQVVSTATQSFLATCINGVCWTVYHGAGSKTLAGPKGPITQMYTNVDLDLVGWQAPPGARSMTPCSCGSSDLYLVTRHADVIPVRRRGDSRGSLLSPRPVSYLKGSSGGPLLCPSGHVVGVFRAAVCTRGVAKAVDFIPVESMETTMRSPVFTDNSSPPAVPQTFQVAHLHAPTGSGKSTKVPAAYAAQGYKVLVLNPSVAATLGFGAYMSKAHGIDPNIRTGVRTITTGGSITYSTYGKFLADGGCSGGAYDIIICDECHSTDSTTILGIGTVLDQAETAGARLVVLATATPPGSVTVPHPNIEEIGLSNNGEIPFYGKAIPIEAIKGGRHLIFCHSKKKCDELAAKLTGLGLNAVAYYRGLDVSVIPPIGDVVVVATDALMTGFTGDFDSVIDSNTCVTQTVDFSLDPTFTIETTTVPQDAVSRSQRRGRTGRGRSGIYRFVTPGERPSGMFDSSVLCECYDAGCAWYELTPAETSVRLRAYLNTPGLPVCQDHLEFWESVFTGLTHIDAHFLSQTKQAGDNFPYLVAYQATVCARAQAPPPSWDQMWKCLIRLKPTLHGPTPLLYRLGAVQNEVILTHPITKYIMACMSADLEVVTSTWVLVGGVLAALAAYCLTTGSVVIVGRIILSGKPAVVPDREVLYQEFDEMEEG
PROTOCOL: FRET peptide assay to monitor HCV NS3/4A proteolytic activity (J4L6S strain)
pIC50: −log10 of the molar value.

MOLECULE	pIC50
C=C[C@@H]1C[C@]1(NC(=O)[C@@H]1C[C@@](SCCCC)(c2ccc(-c3ccccc3)cc2)CN1C(=O)[C@@H](NC(=O)OC(C)(C)C)C(C)(C)C)C(=O)NS(=O)(=O)C1CC1 [Example 1]	8.96
